assay.system: T1, canine renal PTH/PTHrP receptor (canine, UniProt Q9TU31 29-595)
T1 construct: whole, on cells; Native receptor in renal cortical membranes of adult mongrel dogs, not intact cells; also called canine renal receptors; receptor in canine renal cortical membranes (CRCM)
T1 sequence (looked up): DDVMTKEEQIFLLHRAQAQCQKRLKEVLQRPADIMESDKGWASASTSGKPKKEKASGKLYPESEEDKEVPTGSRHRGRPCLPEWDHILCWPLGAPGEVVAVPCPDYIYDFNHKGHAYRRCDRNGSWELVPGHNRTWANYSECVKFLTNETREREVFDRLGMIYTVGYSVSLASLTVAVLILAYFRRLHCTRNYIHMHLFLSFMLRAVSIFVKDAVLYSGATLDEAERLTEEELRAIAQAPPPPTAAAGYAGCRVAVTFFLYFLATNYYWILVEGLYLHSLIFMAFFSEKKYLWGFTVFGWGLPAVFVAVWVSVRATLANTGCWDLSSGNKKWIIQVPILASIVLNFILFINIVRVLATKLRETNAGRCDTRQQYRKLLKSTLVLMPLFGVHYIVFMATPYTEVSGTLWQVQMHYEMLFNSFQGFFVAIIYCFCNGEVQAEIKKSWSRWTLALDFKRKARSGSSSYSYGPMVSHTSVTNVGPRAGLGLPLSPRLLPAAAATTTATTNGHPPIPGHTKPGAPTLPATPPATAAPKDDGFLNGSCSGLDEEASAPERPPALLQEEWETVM
assay.name: competition of 125I-[Tyr36]PTHrP-(1-36)amide binding, canine renal cortical membranes, 20 C; Ki from IC50
result.type: Ki (nM)
Report the figure in nM without appending any unit label.

// query What measured Ki goes with AVSEIQFMHNLGKHLSSMERVEWLRKKLQDVHNF (peptide, UniProt P01268 32-65, looked up, range 1-34; Synthetic, Bachem; also called bPTH-(1-34); bovine (b)PTH-(1-34)) [bovine PTH-(1-34)] ?
// result 10.5
